Data provenance is patent US9365574B2.

# Study target: sGC (Homo sapiens, UniProt Q02108+Q02153)
# Construct: expressed in transfected cells; host or cells: CHO-K1 (clone #7, CHO-K1/sGC)
# Sequence (Q02108 whole entry): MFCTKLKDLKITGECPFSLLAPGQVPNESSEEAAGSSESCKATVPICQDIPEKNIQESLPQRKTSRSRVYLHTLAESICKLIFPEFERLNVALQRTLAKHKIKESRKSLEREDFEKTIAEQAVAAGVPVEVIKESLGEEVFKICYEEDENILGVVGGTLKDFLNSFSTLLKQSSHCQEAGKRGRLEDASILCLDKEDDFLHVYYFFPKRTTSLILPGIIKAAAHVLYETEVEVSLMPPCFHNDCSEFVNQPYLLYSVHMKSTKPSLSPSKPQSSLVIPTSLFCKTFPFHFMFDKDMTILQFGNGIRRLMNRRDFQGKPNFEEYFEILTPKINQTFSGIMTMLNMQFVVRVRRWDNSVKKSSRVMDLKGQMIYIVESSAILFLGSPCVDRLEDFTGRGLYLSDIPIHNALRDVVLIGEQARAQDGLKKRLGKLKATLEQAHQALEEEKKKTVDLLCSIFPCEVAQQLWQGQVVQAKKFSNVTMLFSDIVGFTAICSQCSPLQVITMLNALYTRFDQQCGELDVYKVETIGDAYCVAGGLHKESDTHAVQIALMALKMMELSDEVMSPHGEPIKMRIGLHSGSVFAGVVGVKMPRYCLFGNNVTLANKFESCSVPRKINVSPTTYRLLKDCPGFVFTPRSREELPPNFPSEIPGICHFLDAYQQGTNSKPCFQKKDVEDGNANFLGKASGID
# Sequence (Q02153 whole entry): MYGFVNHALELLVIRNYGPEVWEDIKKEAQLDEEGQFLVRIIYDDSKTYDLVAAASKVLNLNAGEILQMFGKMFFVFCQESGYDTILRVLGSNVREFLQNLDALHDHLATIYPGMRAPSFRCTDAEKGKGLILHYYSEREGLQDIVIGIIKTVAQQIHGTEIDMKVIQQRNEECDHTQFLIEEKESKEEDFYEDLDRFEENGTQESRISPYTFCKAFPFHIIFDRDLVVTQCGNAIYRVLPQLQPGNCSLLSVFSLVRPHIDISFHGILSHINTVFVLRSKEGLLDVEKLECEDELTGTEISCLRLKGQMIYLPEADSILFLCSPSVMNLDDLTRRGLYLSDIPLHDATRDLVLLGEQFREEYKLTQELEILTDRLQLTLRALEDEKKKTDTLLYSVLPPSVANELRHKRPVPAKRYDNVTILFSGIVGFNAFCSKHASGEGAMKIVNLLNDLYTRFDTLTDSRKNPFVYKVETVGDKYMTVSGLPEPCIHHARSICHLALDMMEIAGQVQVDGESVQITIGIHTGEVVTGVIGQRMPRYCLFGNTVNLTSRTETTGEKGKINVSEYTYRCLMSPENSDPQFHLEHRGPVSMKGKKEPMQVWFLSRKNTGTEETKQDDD
# Test details: Cell-based sGC Functional Assay (CASA Assay), cGMP generation in CHO-K1/sGC cells
# Run conditions: without ODQ incubation, fold over DMSO control
Label Yes when Maximum fold induction over DMSO control < 100; otherwise No.

Molecule: CC1(c2ccccc2)C(=O)Nc2nc(-n3nc(CCC(F)(F)C(F)(F)F)c4cc(F)ccc43)nc(N)c21 (stereo not drawn)
Label: No
//
Molecule: CC1(c2ccccc2)C(=O)Nc2nc(-c3nn(CCC(F)(F)C(F)(F)F)c4cc(Cl)ccc34)nc(N)c21 (stereo not drawn)
Label: No
//
Molecule: CC1(c2ccccc2)C(=O)Nc2nc(-c3nc(CCC(F)(F)C(F)(F)F)n4cc(Cl)ccc34)nc(N)c21 (stereo not drawn)
Label: Yes
//
Molecule: CC1(c2ccc(F)cc2)C(=O)Nc2nc(-c3nc(CCC(F)(F)C(F)(F)F)n4cc(Cl)ccc34)nc(N)c21 (stereo not drawn)
Label: No
//
Molecule: CC1(c2ccccc2)C(=O)Nc2nc(-n3nc(CCC(F)(F)C(F)(F)F)c4cc(Cl)ccc43)nc(N)c21 (stereo not drawn)
Label: No

Turning now to a further record.
Dear colleague, could you confirm whether Maximum fold induction over DMSO control of CC1(c2ccccc2)C(=O)Nc2nc(-c3nn(CCC(F)(F)C(F)(F)F)c4cc(F)ccc34)nc(N)c21 (stereo not drawn) falls below 100? Thanks.
No
